Values compiled from patent US20220281976A1.

- target system: human CD33 (human, UniProt P20138 18-364)
- Sequence (P20138 18-364): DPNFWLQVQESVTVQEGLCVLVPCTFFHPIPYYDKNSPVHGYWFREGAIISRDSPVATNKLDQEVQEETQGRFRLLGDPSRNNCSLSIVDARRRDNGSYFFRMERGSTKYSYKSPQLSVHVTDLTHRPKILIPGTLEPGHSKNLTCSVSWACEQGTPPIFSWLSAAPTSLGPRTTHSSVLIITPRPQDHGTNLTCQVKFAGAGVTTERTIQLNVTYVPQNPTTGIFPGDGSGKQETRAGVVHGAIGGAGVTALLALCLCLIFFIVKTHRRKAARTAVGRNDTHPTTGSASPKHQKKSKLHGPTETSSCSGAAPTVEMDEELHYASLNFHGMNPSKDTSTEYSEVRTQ
- test protocol: cell-based or functional assay
In this section we review reported Percent CD33 Surface Expression, Monocyte % CD33 values for a set of binders.
API: value field is a number in %; no unit string.

Some binders with recorded Percent CD33 Surface Expression, Monocyte % CD33:
binder	observed value
C-56 (antibody, V domains shown, human IgG1) VH: EVQLVESGGGLVQPGGSLRLSCAASGFTFSSYWMSWVRQAPGKGLEWVANIKQDGSEKYYVDSVKGRFTISRDNAKNSLYLQMNSLRAEDTAVYYCARDYGSVAGTPFDYWGQGTLVTVSS VL: DIQMTQSPSSLSASVGDRVTITCRASQSISSYLNWYQQKPGKAPKLLIYAASSLQSGVPSRFSGSGSGTDFTLTISSLQPEDFATYYCQQVLHTPLTFGGGTKVEIK	41.6
C-42 (antibody, V domains shown, human IgG1) VH: QLQLQESGPGLVKPSETLSLTCTVSGGSISSSSYYWGWIRQPPGKGLEWIGSIYYSGSTYYNPSLKSRVTISVDTSKNQFSLKLSSVTAADTAVYYCAREPIYRRGMDVWGQGTTVTVSS VL: EIVLTQSPATLSLSPGERATLSCRASQSVSSYLAWYQQKPGQAPRLLIYDASNRATGIPARFSGSGSGTDFTLTISSLEPEDFAVYYCQQFSNYPTFGGGTKVEIK	44.9
C-23 (antibody, V domains shown, human IgG1) VH: QVQLQESGPGLVKPSETLSLTCAVSGYSISSGYYWGWIRQPPGKGLEWIGTIYHSGSTYYNPSLKSRVTISVDTSKNQFSLKLSSVTAADTAVYYCAREVGVVGALPYFDYWGQGTLVTVSS VL: DIQMTQSPSSLSASVGDRVTITCRASQSISSYLNWYQQKPGKAPKLLIYGASSLQSGVPSRFSGSGSGTDFTLTISSLQPEDFATYYCQQASSSPPTFGGGTKVEIK	71.3
C-72 (antibody, V domains shown, human IgG1) VH: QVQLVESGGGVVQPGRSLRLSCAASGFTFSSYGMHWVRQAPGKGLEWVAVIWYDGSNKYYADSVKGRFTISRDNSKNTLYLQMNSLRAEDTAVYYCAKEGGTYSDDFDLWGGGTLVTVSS VL: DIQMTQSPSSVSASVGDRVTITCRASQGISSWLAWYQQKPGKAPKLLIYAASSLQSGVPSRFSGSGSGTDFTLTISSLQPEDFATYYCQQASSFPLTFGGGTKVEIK	41.8

Field: next binder
Requested field: Percent CD33 Surface Expression, Monocyte % CD33. Item: C-19 (antibody, V domains shown, human IgG1) VH: QLQLQESGPGLVKPSETLSLTCTVSGGSISSSSYAWGWIRQPPGKGLEWIGSIYYSGSTYYNPSLKSRVTISVDTSKNQFSLKLSSVTAADTAVYYCARVGYTRPYGMDVWGQGTTVTVSS VL: DIQMTQSPSSVSASVGDRVTITCRASQGISSWLAWYQQKPGKAPKLLIYAASSLQSGVPSRFSGSGSGTDFTLTISSLQPEDFATYYCQQINAHPTFGGGTKVEIK 28.2
